Measured EC50 by item
system: human beta-coronavirus OC43; assay: OC43 coronavirus antiviral assay in HeLa cells (cytopathic effect, cell-titer-glo); type: cell-based; conditions: Betacoronavirus 1, OC43, HeLa, 144 h, 6 days at 33° C., read-out: EC50 (class)
property: EC50

>>> recorded_result("CC(C)(C)[C@H](NC(=O)C(F)(F)F)C(=O)N1C[C@H]2[C@@H]([C@H]1C(=O)N[C@H](C#N)C[C@@H]1CCNC1=O)[C@H]1CC[C@@H]2C1(F)F [Example 92]")
"100 to 1000 nM"
>>> recorded_result("CC(C)(C)[C@H](NC(=O)C(F)(F)F)C(=O)N1C[C@@H]2[C@H]3C[C@H](C[C@@H]3F)[C@@H]2[C@H]1C(=O)N[C@H](C#N)C[C@@H]1CCNC1=O [Example 96]")
"100 to 1000 nM"
>>> recorded_result("Cc1nnc(N[C@H](C(=O)N2C[C@H]3[C@@H]([C@H]2C(=O)N[C@H](C#N)C[C@@H]2CCNC2=O)[C@H]2C=C[C@@H]3C2)C(C)(C)C)o1 [Compound 43]")
"100 to 1000 nM"
>>> recorded_result("N#C[C@H](C[C@@H]1CCNC1=O)NC(=O)[C@@H]1[C@@H]2[C@H](CN1C(=O)[C@H](CC1CCC1)NC(=O)C(F)(F)F)[C@@H]1C=C[C@H]2C1 [Example 95]")
"< 100 nM"
>>> recorded_result("CC(C)(C)[C@H](NC(=O)C(F)(F)Cl)C(=O)N1C[C@H]2[C@@H]([C@H]1C(=O)N[C@H](C#N)C[C@@H]1CCNC1=O)[C@H]1C=C[C@@H]2C1 [Example 39]")
"< 100 nM"

----------
tested on: HeLa cells; assay: Cytotoxicity in HeLa cells without OC43 virus (cell-titer-glo); conditions: read-out: CC50 (class); HeLa cells without OC43 virus
property: CC50

>>> recorded_result("CC(C)(C)[C@H](NC(=O)C(F)(F)F)C(=O)N1C[C@H]2[C@@H]([C@H]1C(=O)NC(C[C@@H]1CCNC1=O)C(=O)C(=O)NC1CC1)[C@H]1C=C[C@@H]2C1 (stereo partly shown)")
"> 10 µM"

----------
target: HRV3C (Human rhinovirus 14, UniProt P03303); construct: 3CLpro and HRV3C was added using a Multidrop Combi; assay: biochemical; parameters: species or system HRV; conditions: HRV3C, 30 mins preincubation, SAMDI-MS; read-out: HRV IC50 (bound)
Sequence (P03303 1538-1719): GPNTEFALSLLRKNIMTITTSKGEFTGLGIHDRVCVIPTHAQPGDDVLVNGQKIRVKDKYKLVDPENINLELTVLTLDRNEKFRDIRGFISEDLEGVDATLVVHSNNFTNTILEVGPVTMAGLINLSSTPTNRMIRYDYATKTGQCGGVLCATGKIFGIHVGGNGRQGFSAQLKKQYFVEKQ
property: IC50

>>> recorded_result("CC(C)(C)[C@H](NC(=O)C(F)(F)F)C(=O)N1C[C@@H]2[C@H]3C[C@@H]([C@@H]2[C@H]1C(=O)N[C@H](C#N)C[C@@H]1CCNC1=O)[C@H](O)C3")
"> 10 µM"
>>> recorded_result("CC(C)(C)[C@H](NC(=O)C(F)(F)F)C(=O)N1C[C@H]2[C@@H]([C@H]1C(=O)N[C@H](C#N)C[C@@H]1CCNC1=O)[C@H]1C=C[C@@H]2CC1 [Compound 59b]")
"> 10 µM"
>>> recorded_result("Cc1cn(C(C(=O)N2C[C@H]3[C@@H]([C@H]2C(=O)N[C@H](C#N)C[C@@H]2CCNC2=O)[C@H]2C=C[C@@H]3C2)C(C)(C)C)nn1 (some centres unmarked)")
"> 10 µM"
>>> recorded_result("CC(C)(C)[C@H](NC(=O)C(F)(F)F)C(=O)N1C[C@H]2[C@@H]([C@H]1C(=O)N[C@H](C#N)C[C@@H]1CCNC1=O)[C@H]1C=C[C@@H]2C1(F)F")
"> 10 µM"
>>> recorded_result("CC(C)(C)[C@H](NC(=O)C1COC1)C(=O)N1C[C@H]2[C@@H]([C@H]1C(=O)N[C@H](C#N)C[C@@H]1CCNC1=O)[C@H]1C=C[C@@H]2C1")
"> 10 µM"
>>> recorded_result("CC(C)(C)[C@H](NC(=O)C(F)(Cl)Cl)C(=O)N1C[C@H]2[C@@H]([C@H]1C(=O)N[C@H](C#N)C[C@@H]1CCNC1=O)[C@H]1C=C[C@@H]2C1")
"> 10 µM"
>>> recorded_result("CC(C)(C)[C@@H](C(=O)N1C[C@H]2[C@@H]([C@H]1C(=O)N[C@H](C#N)C[C@@H]1CCNC1=O)[C@H]1C=C[C@@H]2C1)N1CCCC1=O")
"> 10 µM"
>>> recorded_result("CC(C)(C)[C@H](NC(=O)C(F)(F)F)C(=O)N1C[C@@H]2[C@H]3C[C@H](C[C@@H]3F)[C@@H]2[C@H]1C(=O)N[C@H](C#N)C[C@@H]1OCCNC1=O")
"> 0.5 µM"
>>> recorded_result("CC(C)(F)C(=O)N[C@H](C(=O)N1C[C@H]2[C@@H]([C@H]1C(=O)N[C@H](C#N)C[C@@H]1CCNC1=O)[C@H]1C=C[C@@H]2C1)C(C)(C)C")
"> 10 µM"
>>> recorded_result("CC(C)(C)[C@H](NC(=O)C(F)(F)F)C(=O)N1C[C@H]2[C@@H]([C@H]1C(=O)N[C@H](C#N)CC1Cn3ncnc3NC1=O)[C@H]1C=C[C@@H]2C1 (some centres unmarked)")
"> 10 µM"
>>> recorded_result("CC(C)(C)[C@H](NC(=O)C(F)(F)C(F)(F)F)C(=O)N1C[C@H]2[C@@H]([C@H]1C(=O)N[C@H](C#N)C[C@@H]1CCNC1=O)[C@H]1C=C[C@@H]2C1")
"> 10 µM"
>>> recorded_result("C#CC(C)(C)[C@H](NC(=O)C1(F)CC1)C(=O)N1C[C@H]2[C@@H]([C@H]1C(=O)N[C@H](C#N)C[C@@H]1CCNC1=O)[C@H]1C=C[C@@H]2C1")
"> 10 µM"
>>> recorded_result("CC(C)(C)[C@H](NC(=O)C(F)(F)F)C(=O)N1C[C@H]2[C@@H]([C@H]1C(=O)N[C@H](C#N)C[C@@H]1CCNC1=O)[C@H]1C=C[C@@H]2C1")
"> 10 µM"
>>> recorded_result("CC(C)(C)[C@H](NC(=O)C1(F)CCC1)C(=O)N1C[C@H]2[C@@H]([C@H]1C(=O)N[C@H](C#N)C[C@@H]1CCNC1=O)[C@H]1C=C[C@@H]2C1")
"> 10 µM"
>>> recorded_result("CC(C)(C)[C@H](NC(=O)C(F)(F)F)C(=O)N1C[C@@]2(F)[C@@H]([C@H]1C(=O)N[C@H](C#N)C[C@@H]1CCNC1=O)[C@H]1C=C[C@@H]2C1")
"> 0.5 µM"
>>> recorded_result("CC(C)(C)[C@H](NC(=O)C(F)(F)F)C(=O)N1C[C@H]2[C@@H]([C@H]1C(=O)N[C@H](C#N)C[C@@H]1CCNC1=O)[C@H]1CC[C@@H]2C1(F)F")
"> 0.5 µM"
>>> recorded_result("COC1(C(=O)N[C@H](C(=O)N2C[C@H]3[C@@H]([C@H]2C(=O)N[C@H](C#N)C[C@@H]2CCNC2=O)[C@H]2C=C[C@@H]3C2)C(C)(C)C)CC1")
"> 0.5 µM"
>>> recorded_result("CC(C)(C)[C@H](NC(=O)C(F)(F)F)C(=O)N1C[C@@H]2[C@H]3C[C@@H]([C@@H]2[C@H]1C(=O)N[C@H](C#N)C[C@@H]1CCNC1=O)C1(CC1)C3")
"> 10 µM"
>>> recorded_result("CC(C)(C)[C@H](NC(=O)[C@H]1CC1(F)F)C(=O)N1C[C@H]2[C@@H]([C@H]1C(=O)N[C@H](C#N)C[C@@H]1CCNC1=O)[C@H]1C=C[C@@H]2C1")
"> 10 µM"
>>> recorded_result("N#C[C@H](C[C@@H]1CCNC1=O)NC(=O)[C@@H]1[C@@H]2[C@H](CN1C(=O)[C@@H](NC(=O)C(F)(F)F)C13CC(C1)C3)[C@@H]1C=C[C@H]2C1")
"> 10 µM"

----------
system: HeLa cells; experiment: Cytotoxicity in HeLa cells without OC43 virus (cell-titer-glo); settings: HeLa cells without OC43 virus
property: CC50

>>> recorded_result("C=C1C[C@@H]2C[C@H]1[C@H]1[C@@H]2CN(C(=O)[C@@H](NC(=O)C(F)(F)F)C(C)(C)C)[C@@H]1C(=O)N[C@H](C#N)C[C@@H]1CCNC1=O")
"> 100 µM"
>>> recorded_result("CC(C)(C)[C@H](NC(=O)C(F)(F)F)C(=O)N1C[C@@H]2[C@H]3CC[C@H](CC3)[C@@H]2[C@H]1C(=O)N[C@H](C#N)C[C@@H]1CCNC1=O [Compound 71b]")
"> 100 µM"
>>> recorded_result("CC(C)(C)[C@H](NC(=O)C(F)(F)F)C(=O)N1C[C@@]2(F)[C@@H]([C@H]1C(=O)N[C@H](C#N)C[C@@H]1CCNC1=O)[C@H]1C=C[C@@H]2C1")
"> 100 µM"
